Recorded pKi, one value per entry.
test system: TR-BBB cells; experiment: Inhibition of [14C]L-citrulline uptake in TR-BBB cells by unlabeled amino acids, transporter inhibitors and drugs; format: cell-based, rat; conditions: Lineweaver-Burk plot, 300 μM inhibitor, pH 7.4, 37 °C, 5 min
Field pKi (float): negative decimal logarithm of the concentration in molar.

INSERT INTO assay_data (chemical_smiles, measured_result) VALUES
  ('NCC1(CC(=O)O)CCCCC1', 3.17);

// next item, pKi requested
Look up pKi: N[C@@H](Cc1ccc(O)c(O)c1)C(=O)O
3.31
